Reference source for all entries: patent US7935722B2

# EXPERIMENTAL_TARGET: human androgen receptor (AR) (Homo sapiens, UniProt P10275)
# Construct: expressed in transfected cells; host or cells: mouse myoblast C2C12 cells, transiently co-transfected
# Sequence (P10275 1-920): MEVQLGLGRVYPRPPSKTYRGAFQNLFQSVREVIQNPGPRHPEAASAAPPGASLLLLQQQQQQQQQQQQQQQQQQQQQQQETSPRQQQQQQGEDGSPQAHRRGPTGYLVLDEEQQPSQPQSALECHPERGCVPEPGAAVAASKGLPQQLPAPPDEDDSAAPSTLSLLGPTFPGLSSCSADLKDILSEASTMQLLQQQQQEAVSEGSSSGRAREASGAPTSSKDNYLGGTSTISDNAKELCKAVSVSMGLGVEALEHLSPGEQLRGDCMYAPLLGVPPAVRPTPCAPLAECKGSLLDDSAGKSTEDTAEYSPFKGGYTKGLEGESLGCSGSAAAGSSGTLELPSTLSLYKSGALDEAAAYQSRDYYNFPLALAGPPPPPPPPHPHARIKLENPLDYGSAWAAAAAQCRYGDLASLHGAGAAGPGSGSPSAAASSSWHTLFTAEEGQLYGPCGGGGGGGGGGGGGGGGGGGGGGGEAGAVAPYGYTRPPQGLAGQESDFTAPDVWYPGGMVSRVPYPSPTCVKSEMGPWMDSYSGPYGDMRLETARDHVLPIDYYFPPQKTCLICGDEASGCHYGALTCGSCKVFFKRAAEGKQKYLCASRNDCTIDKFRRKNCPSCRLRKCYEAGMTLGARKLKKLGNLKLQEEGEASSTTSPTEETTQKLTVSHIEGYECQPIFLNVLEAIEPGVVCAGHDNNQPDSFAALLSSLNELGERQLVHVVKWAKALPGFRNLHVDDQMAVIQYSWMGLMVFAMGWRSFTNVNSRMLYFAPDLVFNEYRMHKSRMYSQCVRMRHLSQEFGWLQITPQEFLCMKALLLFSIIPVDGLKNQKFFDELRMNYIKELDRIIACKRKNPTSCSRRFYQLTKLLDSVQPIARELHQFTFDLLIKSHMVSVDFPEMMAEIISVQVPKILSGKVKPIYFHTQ
# ASSAY_PROCEDURE: C2C12 AR/ARE reporter assay
# Assay type: cell-based
EXPERIMENTAL_ENDPOINT: EC50

Here are 3 compounds together with their reported answers.
CC(C)C(=O)NC1CCc2c(c3cc(C(N)=O)ccc3n2Cc2cccc(F)c2)C1 (stereo not shown)    66.9 nM
CC(C)C(=O)NC1CCc2c(c3cc(Br)ccc3n2Cc2cccc(F)c2)C1 (stereo not shown)    2.3 nM
N#Cc1ccc2c(c1)c1c(n2Cc2cccc(F)c2)CCC(NC(=O)C2CC2)C1 (stereo not shown)    7.9 nM

Qu. Which EC50 value is on record for CC(C)C(=O)NC1CCc2c(c3cc(Br)ccc3n2Cc2ccc(Cl)cc2)C1 (stereo not shown) ?
Ans. 188 nM

----------
# EXPERIMENTAL_TARGET: human androgen receptor (AR) (Homo sapiens, UniProt P10275)
# Construct: expressed in transfected cells; host or cells: mouse myoblast C2C12 cells, transiently co-transfected
# ASSAY_PROCEDURE: C2C12 AR/ARE reporter assay
# Assay type: cell-based
# DETAILS: C2C12, read-out: C2C12 % Efficacy
EXPERIMENTAL_ENDPOINT: Emax (%)
Numbers only here, please. The scale is %.

Qu. Which Emax value is on record for COc1ccc(Cn2c3c(c4cc(Br)ccc42)CC(NC(=O)C(C)C)CC3)cc1 (stereo not drawn) ?
Ans. 46.6

Qu. Which Emax value is on record for CC(C)C(=O)NC1CCc2c(c3cc(Cl)ccc3n2Cc2ccccc2)C1 (stereo not drawn) ?
Ans. 86

Qu. Which Emax value is on record for CC(C)C(=O)NC1CCc2c(c3cc(F)ccc3n2Cc2cccc(F)c2)C1 (stereo not drawn) ?
Ans. 108

Qu. Which Emax value is on record for CC(C)C(=O)NC1CCc2c(c3cc(C#N)ccc3n2Cc2ccccc2N)C1 (stereo not drawn) ?
Ans. 76.9

Qu. Which Emax value is on record for CC(C)C(=O)NC1CCc2c(c3cc(C=O)ccc3n2Cc2cccc(F)c2)C1 (stereo not drawn) ?
Ans. 147

Qu. Which Emax value is on record for COc1ccc2c(c1)c1c(n2Cc2ccccc2OC)CCC(NC(=O)C(C)C)C1 (stereo not drawn) ?
Ans. 66.4

Qu. Which Emax value is on record for COc1cccc(Cn2c3c(c4cc(Br)ccc42)CC(NC(=O)C(C)C)CC3)c1 (stereo not drawn) ?
Ans. 95.5

Qu. Which Emax value is on record for COc1ccc2c(c1)c1c(n2Cc2ccccc2)CCC(NC(=O)C(C)C)C1 (stereo not drawn) ?
Ans. 96.9

Qu. Which Emax value is on record for COc1ccc2c(c1)c1c(n2Cc2ccc(Cl)cc2)CCC(NC(=O)C(C)C)C1 (stereo not drawn) ?
Ans. 40.7

----------
# EXPERIMENTAL_TARGET: human androgen receptor (AR) (Homo sapiens, UniProt P10275)
# Construct: expressed in transfected cells; host or cells: mouse myoblast C2C12 cells, transiently co-transfected
# ASSAY_PROCEDURE: C2C12 AR/ARE reporter assay
# Type: cell-based
# DETAILS: C2C12, read-out: C2C12 % Efficacy
# Emax annotations
Answer format: number, then unit.

CC(C)C(=O)N[C@@H]1CCc2c(c3cc(-c4cnc(N)s4)ccc3n2Cc2cccc(F)c2)C1    102%
CC(C)C(=O)NC1CCc2c(c3cc(-c4cnc(N)s4)ccc3n2Cc2cccc(F)c2)C1 (stereo not drawn)    74.6%
CCNc1ccccc1Cn1c2c(c3cc(C#N)ccc31)CC(NC(=O)C(C)C)CC2 (stereo not drawn)    101%
COc1cc2c3c(n(Cc4cccc(F)c4)c2cc1Cl)CCC(NC(=O)C(C)C)C3 (stereo not drawn)    39.5%

Qu. Which Emax value is on record for CC(C)C(=O)NC1CCc2c(c3cc(C(F)(F)F)ccc3n2Cc2cccc(F)c2)C1 (stereo not drawn) ?
Ans. 82.9%

Qu. Which Emax value is on record for COc1cccc(Cn2c3c(c4cc(Cl)ccc42)CC(NC(=O)C(C)C)CC3)c1 (stereo not drawn) ?
Ans. 54.4%

Qu. Which Emax value is on record for COc1ccc2c(c1)c1c(n2Cc2ccc(F)cc2)CCC(NC(=O)C(C)C)C1 (stereo not drawn) ?
Ans. 59.9%

----------
# EXPERIMENTAL_TARGET: human androgen receptor (AR) (Homo sapiens, UniProt P10275)
# Construct: expressed in transfected cells; host or cells: mouse myoblast C2C12 cells, transiently co-transfected
# Sequence (P10275 1-920): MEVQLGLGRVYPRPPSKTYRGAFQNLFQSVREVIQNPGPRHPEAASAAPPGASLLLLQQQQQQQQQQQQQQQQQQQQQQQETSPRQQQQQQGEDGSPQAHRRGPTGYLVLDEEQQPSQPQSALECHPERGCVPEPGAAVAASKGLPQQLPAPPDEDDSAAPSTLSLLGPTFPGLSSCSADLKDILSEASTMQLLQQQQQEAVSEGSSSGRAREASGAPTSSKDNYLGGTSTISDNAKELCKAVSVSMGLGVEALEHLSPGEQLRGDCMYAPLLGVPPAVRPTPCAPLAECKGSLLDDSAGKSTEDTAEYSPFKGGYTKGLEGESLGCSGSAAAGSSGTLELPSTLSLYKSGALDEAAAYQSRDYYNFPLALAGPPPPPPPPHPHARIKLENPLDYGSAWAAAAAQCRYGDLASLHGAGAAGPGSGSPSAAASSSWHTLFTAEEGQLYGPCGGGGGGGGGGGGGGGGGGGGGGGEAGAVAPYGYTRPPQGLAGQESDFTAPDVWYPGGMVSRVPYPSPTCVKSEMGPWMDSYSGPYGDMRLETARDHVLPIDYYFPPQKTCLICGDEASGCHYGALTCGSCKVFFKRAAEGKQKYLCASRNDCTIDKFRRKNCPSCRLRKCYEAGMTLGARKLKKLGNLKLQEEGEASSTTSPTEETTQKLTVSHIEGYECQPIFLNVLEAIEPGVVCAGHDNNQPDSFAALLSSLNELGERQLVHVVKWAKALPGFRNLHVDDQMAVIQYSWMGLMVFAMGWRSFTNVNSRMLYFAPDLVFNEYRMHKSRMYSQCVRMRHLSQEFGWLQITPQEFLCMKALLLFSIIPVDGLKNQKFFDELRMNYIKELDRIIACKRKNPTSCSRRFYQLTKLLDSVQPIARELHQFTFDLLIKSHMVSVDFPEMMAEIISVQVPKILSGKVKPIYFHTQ
# ASSAY_PROCEDURE: C2C12 AR/ARE reporter assay
# Assay type: cell-based
# DETAILS: C2C12, read-out: C2C12 % Efficacy
EXPERIMENTAL_ENDPOINT: Emax

CC(C)C(=O)NC1CCc2c(c3cc(Br)ccc3n2Cc2ccccc2Cl)C1 (centres unmarked) [Example 32]    94.3%
CC(C)C(=O)NC1CCc2c(c3cc(Cl)ccc3n2Cc2cc(F)cc(F)c2)C1 (centres unmarked) [Example 29]    64%
CC(C)C(=O)NC1CCc2c(c3cc4c(cc3n2Cc2cccc(F)c2)OCO4)C1 (centres unmarked) [Example 98]    104%
CC(C)C(=O)NC1CCc2c(c3cc(Br)ccc3n2Cc2ccc(F)cc2)C1 (centres unmarked) [Example 39]    76.1%
CC(C)C(=O)NC1CCc2c(c3cc(OC(F)(F)F)ccc3n2Cc2cccc(F)n2)C1 (centres unmarked) [Example 162]    81.7%
CC(C)C(=O)NC1CCc2c(c3cc(Cl)ccc3n2Cc2ccccc2O)C1 (centres unmarked) [Example 101]    65.3%
CO/N=C/c1ccc2c(c1)c1c(n2Cc2ccccn2)CC[C@@H](NC(=O)C2CC2)C1 [Example 208]    96.3%

Attention now turns to another entry.
Qu. Which Emax value is on record for COc1ccc2c(c1)c1c(n2Cc2ccccc2F)CCC(NC(=O)C(C)C)C1 (centres unmarked) [Example 78] ?
Ans. 71.5%
